# SYSTEM NAME: human GPBAR1 receptor (Homo sapiens, UniProt Q8TDU6)
# Construct: expressed in transfected cells
# Sequence (Q8TDU6 whole entry): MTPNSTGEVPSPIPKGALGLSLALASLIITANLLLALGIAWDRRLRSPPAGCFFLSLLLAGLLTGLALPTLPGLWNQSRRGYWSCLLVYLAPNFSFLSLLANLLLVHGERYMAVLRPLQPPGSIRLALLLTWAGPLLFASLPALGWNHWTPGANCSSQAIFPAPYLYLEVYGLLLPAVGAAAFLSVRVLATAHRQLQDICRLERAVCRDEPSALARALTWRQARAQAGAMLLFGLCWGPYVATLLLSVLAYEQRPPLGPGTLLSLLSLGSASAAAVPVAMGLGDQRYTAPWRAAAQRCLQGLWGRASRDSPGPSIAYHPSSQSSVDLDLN
# ASSAY SUMMARY: functional cAMP assay in CHO-dhfr(minus) cells expressing human GPBAR1 receptors
# Assay type: cell-based
# SETTINGS: human EC50, functional cAMP assay, 30 min at 30° C.
Here, each record is paired with measured pEC50 data.
Interpret pEC50 as the negative base-10 log of the concentration measured in mol/L.

Below, 10 compounds whose answers are already recorded.
- COMPOUND: "Cc1cc(Cl)ccc1C(C/C(=N\\O)c1ccc(=O)n(C)c1)c1ccc(-c2ccc(C(=O)O)cc2)cc1 (stereo not shown)"
  RECORDED RESULT: 7.26
- COMPOUND: "Cn1cc(/C(CC(c2ccc(Br)cc2)C2CCCC2)=N/O)ccc1=O (stereo not shown)"
  RECORDED RESULT: 7.25
- COMPOUND: "CC(=O)N1CCC(c2ccc([C@@H](C/C(=N\\O)c3ccc(=O)n(C)c3)c3ccccc3C)cc2)CC1"
  RECORDED RESULT: 6.39
- COMPOUND: "Cc1cc(/C(C[C@H](c2ccc(C3CN(S(N)(=O)=O)C3)cc2)c2ccccc2C)=N/O)ccn1"
  RECORDED RESULT: 7.68
- COMPOUND: "ON=C(CC(c1ccccc1)c1ccccc1)c1cc(F)ncc1Cl (racemic)"
  RECORDED RESULT: 7.12
- COMPOUND: "Cn1cc(/C(CC(c2cccc(C(=O)N3CCOCC3)c2)c2ccc(Cl)cc2F)=N/O)ccc1=O (stereo not shown)"
  RECORDED RESULT: 5.40
- COMPOUND: "Cc1cc(/C(C[C@H](c2ccc(N3CCCC3=O)cc2)c2ccccc2C)=N/O)ccn1"
  RECORDED RESULT: 7.55
- COMPOUND: "Cn1cc(/C(CC(c2ccc(C(=O)N[C@H]3CC[C@H](C(=O)O)CC3)c(F)c2)c2ccccc2Cl)=N/O)ccc1=O (stereo partly shown)"
  RECORDED RESULT: 6.55
- COMPOUND: "Cc1cc(/C(CC(c2cccc(Br)c2)c2ccccc2C)=N/O)cc(F)n1 (stereo not shown)"
  RECORDED RESULT: 6.70
- COMPOUND: "Cn1cc(/C(CC(c2ccc(C(=O)NC[C@@H](O)CO)cc2)c2ccc(Cl)cc2F)=N/O)ccc1=O (stereo partly shown)"
  RECORDED RESULT: 6.49

Ask: State the recorded pEC50 for this entry: Cc1cc(/C(C[C@@H](c2ccccc2)c2ccc(Cl)cc2C)=N/O)ccn1
Result: 7.28

Ask: What do we get for Cc1cc(/C(CC(c2ccc(Br)cc2)c2ccccc2C(F)(F)F)=N/O)ccn1 (stereo not shown) ?
Result: 7.34

Ask: What do we get for CCC(CC(=NO)c1ccncc1)c1cccc(Br)c1 (racemic) ?
Result: 6.76

Ask: What do we get for Cc1ccccc1C(C/C(=N\O)c1cc(F)cc(F)c1)c1ccc(-c2cncnc2)cc1 (stereo not shown) ?
Result: 5.59

Ask: What do we get for Cc1ccccc1C(Cc1ccc(Br)cc1)/C(=N/O)c1ccncc1 (stereo not shown) ?
Result: 6.07

Ask: What do we get for Cc1cc(Cl)ccc1C(C/C(=N\O)c1ccc(=O)n(C)c1)c1ccc(S(N)(=O)=O)cc1 (stereo not shown) ?
Result: 7.22

Ask: What do we get for CCNC(=O)c1ccc(C(C/C(=N\O)c2ccc(=O)n(C)c2)c2ccccc2Cl)cc1F (stereo not shown) ?
Result: 6.60

Ask: What do we get for Cc1cc(/C(C[C@@H](c2ccc(-c3ccc(C(=O)O)c(F)c3)cc2)c2ccc(Cl)cc2F)=N/O)ccn1 (single isomer, unassigned) ?
Result: 8.05

Ask: What do we get for Cc1cc(/C(CC(c2ccc(-c3ccc(C(=O)O)cc3C)cc2)c2ccc(Cl)cc2F)=N/O)ccn1 (stereo not shown) ?
Result: 7.80

Ask: What do we get for Cn1cc(/C(CC(c2ccc(S(C)(=O)=O)cc2)c2ccccc2Cl)=N/O)ccc1=O (stereo not shown) ?
Result: 7.52

Ask: What do we get for Cc1cc(/C(C[C@@H](c2ccc(N3CCC(C(=O)O)CC3)cc2)c2ccc(F)cc2F)=N/O)ccn1 (single isomer, unassigned) ?
Result: 7.74

Ask: What do we get for Cc1cc(Cl)ccc1C(C/C(=N\O)c1ccc(=O)n(CCO)c1)c1ccc(S(C)(=O)=O)cc1 (stereo not shown) ?
Result: 6.00

Ask: What do we get for Cc1ccccc1C(C/C(=N\O)c1ccc(=O)n(C)c1)c1ccc(C(=O)NCCO)cc1 (stereo not shown) ?
Result: 7.03

Ask: What do we get for Cc1ccccc1[C@H](C/C(=N\O)c1ccc(=O)n(C)c1)c1ccc(CC(=O)O)cc1 ?
Result: 6.18

Ask: What do we get for Cc1ccccc1C(C/C(=N\O)c1ccc(=O)n(C)c1)c1ccc(C(=O)NCCCC(=O)O)cc1 (stereo not shown) ?
Result: 5.88

Ask: What do we get for COC(=O)c1ccc(-c2ccc(C(CC(=NO)c3ccnc(C)c3)c3ccccc3C)cc2)cc1 (mixture of isomers) ?
Result: 6.66

Ask: What do we get for COc1ccc(C2(C/C(=N/O)c3ccnc(C)c3)CCCCC2)cc1 ?
Result: 5.25

Ask: What do we get for COc1ccc(C2(C/C(=N\O)c3ccnc(C)c3)CCCCC2)cc1 ?
Result: 5.99

Ask: What do we get for Cc1cc(C(CC(c2cccc(-c3cccc(C(=O)O)c3)c2)c2ccccc2C)=NO)ccn1 (racemic) ?
Result: 6.49

Ask: What do we get for Cc1cc(/C(C[C@H](c2ccc([C@H]3CC[C@@H](C(=O)O)CC3)cc2)c2ccc(Cl)cc2C)=N/O)ccn1 ?
Result: 7.89

Ask: What do we get for CC(=O)NCCNC(=O)c1ccc(C(C/C(=N\O)c2ccc(=O)n(C)c2)c2ccccc2C)cc1 (stereo not shown) ?
Result: 5.66
